Catalogue of inhibition readings, one per entry.
Biological target: Maternal embryonic leucine zipper kinase (Homo sapiens);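 also: each value is the mean inhibition of MELK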
Settings: at 1 µM
property.measured: inhibition (%)

1) CC(C)c1ccc2c(c1)NC(=O)/C2=N/Nc1ccc(S(N)(=O)=O)cc1 = 0.52
2) NS(=O)(=O)c1ccc(-c2cc3ccncc3cc2OCc2ccccc2)cc1 = 3.87
3) COC(=O)c1cncc(/C=C/c2c(C)cc(O)cc2C)c1 = 5.13
4) NS(=O)(=O)c1ccc(Nc2cc(-c3cccc(O)c3)n[nH]2)cc1 = 7.45
5) CN(C)CCCn1c(-c2nonc2N)nc2cnccc21 = 20.1
6) Cc1ccc(NC(=O)CC2CC2)cc1-c1ccc(C(=O)NCC2CC2)cc1 = 2.02
7) O=C1Nc2ccc(-c3cccnc3)cc2C1=Cc1cc(Br)c(O)c(Br)c1 = 10.4
8) Cc1ccc(Nc2ccnc(Nc3cccc(C(N)=O)c3)n2)cc1O = 7.7
9) COc1cccc(-n2ncc3c(N/N=C/c4ccc(C)cc4)ncnc32)c1 = 12.6
10) CCS(=O)(=O)c1ccc(OC)c(Nc2ncc(-c3cccc(OC)c3)o2)c1 = 11.4
11) COc1ccc2ncnc(Nc3ccc(OCc4ccccc4)cc3)c2c1 = 2.03
12) [O-][S+]1CCN(Cc2ccc(-c3ccc4ncnc(Nc5ccc(OCc6ccccc6)c(Cl)c5)c4c3)o2)CC1 = 5.78
13) CS(=O)(=O)Nc1cccc(-c2ccc3c(NC(=O)C4CC4)n[nH]c3c2)c1 = 4.3
14) Nc1nccc(-c2c(-c3ccc(F)cc3)nn3cc(C(F)(F)F)ccc23)n1 = -0.87
15) Nc1nccc(C#Cc2cncnc2Nc2ccc(OCc3cccc(F)c3)c(Cl)c2)n1 = 5.11

---

Molecular target: Serine/threonine-protein kinase DCLK2 (Homo sapiens);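 also: each value is a mean percent inhibition of DCLK2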
Conditions: at 1 µM
property.measured: inhibition

1) c1ccc(Nc2ncc(-c3ccccc3)o2)cc1 = 3.72%
2) CS(=O)(=O)Nc1cccc(-c2ccc3c(NC(=O)C4CC4)n[nH]c3c2)c1 = 1.35%
3) CN(c1ccc(NC(=O)Nc2ccc(OC(F)(F)F)cc2)cc1)c1ccnc(Nc2cccc(S(N)(=O)=O)c2)n1 = 0.7%
4) O=C1Nc2ccc(-c3cccnc3)cc2C1=Cc1cc(Br)c(O)c(Br)c1 = 0.92%
5) Cc1ccc(C(=O)NC2CC2)cc1-c1ccc2[nH]ncc2c1 = -2.34%
6) ON=C1CCc2cc(-c3nc(C4CCNCC4)[nH]c3-c3ccncc3)ccc21 = -0.17%
7) Cc1ccc2c(-c3ccnc(Nc4ccc5c(c4)OCCO5)n3)c(-c3ccc(C(F)(F)F)cc3)nn2n1 = -0.35%
8) COC(=O)c1cncc(/C=C/c2c(C)cc(O)cc2C)c1 = 1.18%
9) CCS(=O)(=O)c1ccc(OC)c(Nc2ncc(-c3cccc(OC)c3)o2)c1 = -0.14%
10) COc1cc2ncnc(Nc3ccc4c(cnn4Cc4ccccc4)c3)c2cc1OC = 0.67%

---

Target: Serine/threonine-protein kinase B-raf (Homo sapiens) (UniProt P15056);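 also: reported value is the mean percent inhibition of BRAF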
Sequence (P15056 whole entry): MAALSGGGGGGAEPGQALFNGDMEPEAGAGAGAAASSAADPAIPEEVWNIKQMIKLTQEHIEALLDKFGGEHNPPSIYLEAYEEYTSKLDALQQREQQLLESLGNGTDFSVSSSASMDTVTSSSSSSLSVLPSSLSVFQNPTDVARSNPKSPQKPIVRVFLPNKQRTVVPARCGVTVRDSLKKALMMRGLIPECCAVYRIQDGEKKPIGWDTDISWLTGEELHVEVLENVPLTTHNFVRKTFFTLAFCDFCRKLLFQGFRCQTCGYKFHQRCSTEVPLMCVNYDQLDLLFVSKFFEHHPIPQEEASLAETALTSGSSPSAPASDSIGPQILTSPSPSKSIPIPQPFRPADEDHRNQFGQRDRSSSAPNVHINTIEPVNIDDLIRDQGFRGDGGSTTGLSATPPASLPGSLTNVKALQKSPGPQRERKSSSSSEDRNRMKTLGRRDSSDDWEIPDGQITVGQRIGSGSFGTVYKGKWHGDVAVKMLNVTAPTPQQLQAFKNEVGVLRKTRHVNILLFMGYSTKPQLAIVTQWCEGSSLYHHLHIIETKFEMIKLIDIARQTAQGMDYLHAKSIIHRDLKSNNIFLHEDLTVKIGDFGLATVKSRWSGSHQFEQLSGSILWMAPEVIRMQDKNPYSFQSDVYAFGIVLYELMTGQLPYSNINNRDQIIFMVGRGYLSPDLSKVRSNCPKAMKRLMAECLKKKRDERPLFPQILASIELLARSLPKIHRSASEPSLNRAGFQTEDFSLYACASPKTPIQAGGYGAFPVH
Conditions: at 1 µM
property.measured: inhibition (%)

1) Nc1ccc(C#Cc2cncnc2Nc2ccc(OCc3cccc(F)c3)c(Cl)c2)cc1 = 3.99
2) CN(C)C(=O)O[C@H]1CN[C@H](C#Cc2cc3ncnc(Nc4ccc(OCc5cccc(F)c5)c(Cl)c4)c3s2)C1 = 6.19
3) NS(=O)(=O)c1ccc(NC=C2C(=O)Nc3ccc4ncsc4c32)cc1 = 60.5
4) Cc1ccc(NC(=O)CC2CC2)cc1-c1ccc(C(=O)NCC2CC2)cc1 = 6.22
5) COc1ccc(-c2nn3ncccc3c2-c2ccnc(Nc3cccc(C(F)(F)F)c3)n2)cc1 = 6.08
6) [O-][S+]1CCN(Cc2ccc(-c3ccc4ncnc(Nc5ccc(OCc6ccccc6)c(Cl)c5)c4c3)o2)CC1 = 3.86
7) OCc1ccc(-c2nc(-c3ccccn3)c(-c3ccc4c(c3)OCO4)[nH]2)cc1 = 7.13
8) O=C(Nc1ccc(Oc2ccc3[nH]c(NC(=O)c4ccco4)nc3c2)cc1)Nc1cc(C(F)(F)F)ccc1F = 60.7
9) FC(F)(F)c1ccc(-c2nn3ncccc3c2-c2ccnc(Nc3ccc4c(c3)OCCO4)n2)cc1 = -1.17
